The entries below come with measured activity coefficient values attached.
Test: activity coefficient (dimensionless); of the first substance listed, at infinite dilution; xn = mol fraction of the nth substance listed
Details: 358.15 K; 101 kPa; Liquid; Chromatography; x1 = 0

{"MOLECULE": "CCCCC(C)=O [2-hexanone] + CCCCC[N+]1(C)CCCCC1.O=S(=O)([N-]S(=O)(=O)C(F)(F)F)C(F)(F)F", "activity coefficient": 0.84}
{"MOLECULE": "C=CCCCC [hex-1-ene] + CCCCCC[N+]1(C)CCCCC1.O=S(=O)([N-]S(=O)(=O)C(F)(F)F)C(F)(F)F", "activity coefficient": 4.06}
{"MOLECULE": "CCC(C)(C)OC [2-methoxy-2-methylbutane] + CCCCCC[N+]1(C)CCCCC1.O=S(=O)([N-]S(=O)(=O)C(F)(F)F)C(F)(F)F", "activity coefficient": 2.25}
{"MOLECULE": "C1CCCCCC1 [cycloheptane] + CCCCCC[N+]1(C)CCCCC1.O=S(=O)([N-]S(=O)(=O)C(F)(F)F)C(F)(F)F", "activity coefficient": 5.08}

* * *

Assay: activity coefficient (dimensionless); of the first substance listed, at infinite dilution; xn = mol fraction of the nth substance listed
Settings: 348.15 K; 101 kPa; Liquid; Chromatography; x1 = 0
The entries below come with measured activity coefficient values attached.

{"COMPOUND": "CCCCCCCCCC [decane] + CCCCC[N+]1(C)CCCCC1.O=S(=O)([N-]S(=O)(=O)C(F)(F)F)C(F)(F)F", "activity coefficient": 25.1}
{"COMPOUND": "C1CCCCCCC1 [cyclooctane] + CCCCC[N+]1(C)CCCCC1.O=S(=O)([N-]S(=O)(=O)C(F)(F)F)C(F)(F)F", "activity coefficient": 8.24}
{"COMPOUND": "Cc1ccc(C)cc1 [1,4-dimethylbenzene] + CCCCCC[N+]1(C)CCCCC1.O=S(=O)([N-]S(=O)(=O)C(F)(F)F)C(F)(F)F", "activity coefficient": 1.28}
{"COMPOUND": "CCCCCCCCCC [decane] + CCCCCC[N+]1(C)CCCCC1.O=S(=O)([N-]S(=O)(=O)C(F)(F)F)C(F)(F)F", "activity coefficient": 19.1}
{"COMPOUND": "Cc1ccc(C)cc1 [1,4-dimethylbenzene] + CCCCC[N+]1(C)CCCCC1.O=S(=O)([N-]S(=O)(=O)C(F)(F)F)C(F)(F)F", "activity coefficient": 1.37}
{"COMPOUND": "CCC(C)(C)C [2,2-dimethylbutane] + CCCCC[N+]1(C)CCCCC1.O=S(=O)([N-]S(=O)(=O)C(F)(F)F)C(F)(F)F", "activity coefficient": 7.04}
{"COMPOUND": "c1ccsc1 [thiophene] + CCCCC[N+]1(C)CCCCC1.O=S(=O)([N-]S(=O)(=O)C(F)(F)F)C(F)(F)F", "activity coefficient": 0.708}
{"COMPOUND": "CC(C)=O [acetone] + CCCCCC[N+]1(C)CCCCC1.O=S(=O)([N-]S(=O)(=O)C(F)(F)F)C(F)(F)F", "activity coefficient": 0.455}
{"COMPOUND": "C=CCCCCCCCC [1-decene] + CCCCC[N+]1(C)CCCCC1.O=S(=O)([N-]S(=O)(=O)C(F)(F)F)C(F)(F)F", "activity coefficient": 15.3}
{"COMPOUND": "C1CCCC1 [cyclopentane] + CCCCCC[N+]1(C)CCCCC1.O=S(=O)([N-]S(=O)(=O)C(F)(F)F)C(F)(F)F", "activity coefficient": 3.24}
{"COMPOUND": "C#CCCCCCC [1-octyne] + CCCCC[N+]1(C)CCCCC1.O=S(=O)([N-]S(=O)(=O)C(F)(F)F)C(F)(F)F", "activity coefficient": 3.81}
{"COMPOUND": "CC(C)CC(C)(C)C [2,2,4-trimethylpentane] + CCCCC[N+]1(C)CCCCC1.O=S(=O)([N-]S(=O)(=O)C(F)(F)F)C(F)(F)F", "activity coefficient": 10.9}
{"COMPOUND": "CCCCCCCCC [nonane] + CCCCCC[N+]1(C)CCCCC1.O=S(=O)([N-]S(=O)(=O)C(F)(F)F)C(F)(F)F", "activity coefficient": 14.6}
{"COMPOUND": "CCCO [propan-1-ol] + CCCCC[N+]1(C)CCCCC1.O=S(=O)([N-]S(=O)(=O)C(F)(F)F)C(F)(F)F", "activity coefficient": 1.46}
{"COMPOUND": "C=CCCCCC [1-heptene] + CCCCCC[N+]1(C)CCCCC1.O=S(=O)([N-]S(=O)(=O)C(F)(F)F)C(F)(F)F", "activity coefficient": 5.45}
{"COMPOUND": "Cc1cccc(C)c1 [1,3-dimethylbenzene] + CCCCCC[N+]1(C)CCCCC1.O=S(=O)([N-]S(=O)(=O)C(F)(F)F)C(F)(F)F", "activity coefficient": 1.27}
{"COMPOUND": "CC(C)CC(C)(C)C [2,2,4-trimethylpentane] + CCCCCC[N+]1(C)CCCCC1.O=S(=O)([N-]S(=O)(=O)C(F)(F)F)C(F)(F)F", "activity coefficient": 8.59}
{"COMPOUND": "CCCOCCC [dipropyl ether] + CCCCCC[N+]1(C)CCCCC1.O=S(=O)([N-]S(=O)(=O)C(F)(F)F)C(F)(F)F", "activity coefficient": 3.38}
{"COMPOUND": "c1ccccc1 [benzene] + CCCCC[N+]1(C)CCCCC1.O=S(=O)([N-]S(=O)(=O)C(F)(F)F)C(F)(F)F", "activity coefficient": 0.744}
{"COMPOUND": "C=CCCCCC [1-heptene] + CCCCC[N+]1(C)CCCCC1.O=S(=O)([N-]S(=O)(=O)C(F)(F)F)C(F)(F)F", "activity coefficient": 6.48}
{"COMPOUND": "C=CCCCCCC [oct-1-ene] + CCCCCC[N+]1(C)CCCCC1.O=S(=O)([N-]S(=O)(=O)C(F)(F)F)C(F)(F)F", "activity coefficient": 7.27}
{"COMPOUND": "Cc1ccccc1 [toluene] + CCCCCC[N+]1(C)CCCCC1.O=S(=O)([N-]S(=O)(=O)C(F)(F)F)C(F)(F)F", "activity coefficient": 0.957}
{"COMPOUND": "COC(C)(C)C [2-methoxy-2-methylpropane] + CCCCC[N+]1(C)CCCCC1.O=S(=O)([N-]S(=O)(=O)C(F)(F)F)C(F)(F)F", "activity coefficient": 1.94}
{"COMPOUND": "C=CCCCC [hex-1-ene] + CCCCC[N+]1(C)CCCCC1.O=S(=O)([N-]S(=O)(=O)C(F)(F)F)C(F)(F)F", "activity coefficient": 4.92}
{"COMPOUND": "C1=CCCCC1 [cyclohexene] + CCCCCC[N+]1(C)CCCCC1.O=S(=O)([N-]S(=O)(=O)C(F)(F)F)C(F)(F)F", "activity coefficient": 2.81}
{"COMPOUND": "C=CCCCCCCCC [1-decene] + CCCCCC[N+]1(C)CCCCC1.O=S(=O)([N-]S(=O)(=O)C(F)(F)F)C(F)(F)F", "activity coefficient": 11.7}
{"COMPOUND": "c1ccsc1 [thiophene] + CCCCCC[N+]1(C)CCCCC1.O=S(=O)([N-]S(=O)(=O)C(F)(F)F)C(F)(F)F", "activity coefficient": 0.664}
{"COMPOUND": "Cc1ccccc1C [1,2-dimethylbenzene] + CCCCC[N+]1(C)CCCCC1.O=S(=O)([N-]S(=O)(=O)C(F)(F)F)C(F)(F)F", "activity coefficient": 1.24}

* * *

Test: activity coefficient (dimensionless); of the first substance listed, at infinite dilution; xn = mol fraction of the nth substance listed
Details: 308.15 K; 101 kPa; Liquid; Chromatography; x1 = 0
PROPERTY NAME: activity coefficient

{"COMPOUND": "COC(C)(C)C [2-methoxy-2-methylpropane] + CCCCC[N+]1(C)CCCCC1.O=S(=O)([N-]S(=O)(=O)C(F)(F)F)C(F)(F)F", "MEASURED RESULT": 1.81}
{"COMPOUND": "CCO [ethanol] + CCCCCC[N+]1(C)CCCCC1.O=S(=O)([N-]S(=O)(=O)C(F)(F)F)C(F)(F)F", "MEASURED RESULT": 1.81}
{"COMPOUND": "C#CCCCCC [1-heptyne] + CCCCCC[N+]1(C)CCCCC1.O=S(=O)([N-]S(=O)(=O)C(F)(F)F)C(F)(F)F", "MEASURED RESULT": 2.39}
{"COMPOUND": "CCCCO [butan-1-ol] + CCCCCC[N+]1(C)CCCCC1.O=S(=O)([N-]S(=O)(=O)C(F)(F)F)C(F)(F)F", "MEASURED RESULT": 2.4}
{"COMPOUND": "CCC(C)(C)OC [2-methoxy-2-methylbutane] + CCCCCC[N+]1(C)CCCCC1.O=S(=O)([N-]S(=O)(=O)C(F)(F)F)C(F)(F)F", "MEASURED RESULT": 2.11}
{"COMPOUND": "CCC(C)(C)OC [2-methoxy-2-methylbutane] + CCCCC[N+]1(C)CCCCC1.O=S(=O)([N-]S(=O)(=O)C(F)(F)F)C(F)(F)F", "MEASURED RESULT": 2.44}
{"COMPOUND": "CCCCO [butan-1-ol] + CCCCC[N+]1(C)CCCCC1.O=S(=O)([N-]S(=O)(=O)C(F)(F)F)C(F)(F)F", "MEASURED RESULT": 2.3}
